target: Hsp90; assay: SPR affinity measurement, biotinylated compounds immobilized on a streptavidin chip, Hsp90 analyte; details: compound immobilized on streptavidin chip, values in parentheses have chi2 > 10
measured-metric: pKd
Field pKd (float): negative decimal logarithm of the concentration in molar.

compound | pKd
COc1ccc(C=CC(=O)NCC(NC(=O)c2cccc(NC(=O)CCC(=O)c3ccc(-c4ccccc4)cc3)c2)C(=O)NCCCCC(NC(=O)COCCOCCNC(=O)CCCCC2SCC3NC(=O)NC32)C(N)=O)cc1OC (centres unmarked) [Compound 8a] | 7.77

Which pKd value belongs to CSc1nnc(CCCOC(=O)NCC(NC(=O)CC2=C(C)C(=Cc3ccc([S+](C)[O-])cc3)c3ccc(F)cc32)C(=O)NCCCCC(NC(=O)COCCOCCNC(=O)CCCCC2SCC3NC(=O)NC32)C(N)=O)n1-c1ccc(Cl)cc1Cl (centres unmarked) [Compound 4a] ?
7.97
